# Tested on: Bordetella bronchiseptica
# test-summary: broth-dilution microtiter MIC test
# Type: cell-based
# recorded-conditions: Bordetella bronchiseptica; broth-dilution microtiter; read-out: MIC
outcome-measure: MIC

Please tell me: MIC of CCC1OC(=O)CC(O)C(C)C(OC2OC(C)C(OC3CC(C)(O)C(O)C(C)O3)C(N(C)C)C2OC(C)=O)C(CC=O)CC(C)C(=O)C=CC(C)=CC1COC1OC(C)C(OC(=O)CC(C)C)C(OC(=O)CC(C)C)C1OC (stereo not drawn) , system Bordetella bronchiseptica?
> 50 µg/mL

Please tell me: MIC of CCC1OC(=O)CC(O)C(C)C(OC2OC(C)C(O)C(N(C)C)C2OC(C)=O)C(CC=O)CC(C)C(=O)C=CC(C)=CC1COC1OC(C)C(OC(C)=O)C(OC(=O)COc2ccccc2)C1OC (stereo not drawn) , system Bordetella bronchiseptica?
> 50 µg/mL

Please tell me: MIC of CCC1OC(=O)CC(O)C(C)C(OC2OC(C)C(OC3CC(C)(O)C(O)C(C)O3)C(N(C)C)C2OC(C)=O)C(CC=O)CC(C)C(=O)C=CC(C)=CC1COC1OC(C)C2OC(=O)OC2C1OC (stereo not drawn) , system Bordetella bronchiseptica?
> 50 µg/mL

###

# Tested on: Mycoplasma gallisepticum 36H
# test-summary: broth-dilution microtiter MIC test
# Assay type: cell-based
# recorded-conditions: Mycoplasmoides gallisepticum, 36H
outcome-measure: MIC (µg/mL)
Write the value in µg/mL as a bare number.

Which value of MIC has been reported for CCC1OC(=O)CC(O)C(C)C(OC2OC(C)C(O)C(N(C)C)C2O)C(CC=O)CC(C)C(=O)C=CC(C)=CC1COC1OC(C)C(OC(=O)CC(C)C)C(OC(=O)CC(C)C)C1OC (centres unmarked) [Compound 28, 3",4"-Di-O-isovaleryl-lactenocin] in the records?
50

Which value of MIC has been reported for CCC1OC(=O)CC(O)C(C)C(OC2OC(C)C(OC3CC(C)(O)C(O)C(C)O3)C(N(C)C)C2OC(C)=O)C(CC=O)CC(C)C(=O)C=CC(C)=CC1COC1OC(C)C(OC(C)=O)C(OC(=O)Cc2ccccc2)C1OC (centres unmarked) [Compound 17] in the records?
12.5

Which value of MIC has been reported for CCC1OC(=O)CC(O)C(C)C(OC2OC(C)C(O)C(N(C)C)C2OC(C)=O)C(CC=O)CC(C)C(=O)C=CC(C)=CC1COC1OC(C)C(OC(C)=O)C(O)C1OC (centres unmarked) [Compound 21, 2',4"-Di-O-acetyl-lactenocin] in the records?
50

Which value of MIC has been reported for CCC1OC(=O)CC(O)C(C)C(OC2OC(C)C(O)C(N(C)C)C2O)C(CC=O)CC(C)C(=O)C=CC(C)=CC1COC1OC(C)C(O)C(OC(=O)Cc2ccccc2)C1OC (centres unmarked) [Compound 32, 3"-O-Phenylacetyl-lactenocin] in the records?
25

Which value of MIC has been reported for CCC1OC(=O)CC(O)C(C)C(OC2OC(C)C(OC3CC(C)(O)C(O)C(C)O3)C(N(C)C)C2OC(C)=O)C(CC=O)CC(C)C(=O)C=CC(C)=CC1COC1OC(C)C2OC(=O)OC2C1OC (centres unmarked) [Compound 48] in the records?
50

###

# Tested on: Escherichia coli EC14
# test-summary: standard agar-dilution MIC assay
# Type: cell-based
outcome-measure: MIC

Which value of MIC has been reported for CCC1OC(=O)CC(O)C(C)C(OC2OC(C)C(O)C(N(C)C)C2O)C(CC=O)CC(C)C(=O)C=CC(C)=CC1COC1OC(C)C(O)C(OC(=O)Cc2ccccc2)C1OC (centres unmarked) in the records?
> 128 µg/mL

Which value of MIC has been reported for CCC1OC(=O)CC(O)C(C)C(OC2OC(C)C(OC3CC(C)(O)C(O)C(C)O3)C(N(C)C)C2O)C(CC=O)CC(C)C(=O)C=CC(C)=CC1COC1OC(C)C(OC(=O)Cc2ccccc2)C(O)C1OC (centres unmarked) in the records?
> 128 µg/mL

Which value of MIC has been reported for CCC1OC(=O)CC(O)C(C)C(OC2OC(C)C(O)C(N(C)C)C2O)C(CCN2C[C@H](C)C[C@H](C)C2)CC(C)C(=O)C=CC(C)=CC1COC1OC(C)C=CC1OC (some centres unmarked) in the records?
64 µg/mL

Which value of MIC has been reported for CCC1OC(=O)CC(O)C(C)C(OC2OC(C)C(OC3CC(C)(O)C(O)C(C)O3)C(N(C)C)C2OC(C)=O)C(CC=O)CC(C)C(=O)C=CC(C)=CC1COC1OC(C)C(OC(=O)Cc2ccccc2)C(O)C1OC (centres unmarked) in the records?
> 128 µg/mL

Which value of MIC has been reported for CCC1OC(=O)CC(O)C(C)C(OC2OC(C)C(OC3CC(C)(O)C(O)C(C)O3)C(N(C)C)C2OC(C)=O)C(CC=O)CC(C)C(=O)C=CC(C)=CC1COC1OC(C)C(OC(C)=O)C(OC(=O)Cc2ccccc2)C1OC (centres unmarked) in the records?
> 128 µg/mL

###

Would you kindly list MIC for each of these compounds?
# System: Mycoplasma gallisepticum 36H
# test-summary: broth-dilution microtiter MIC test
# Type: cell-based
# recorded-conditions: Mycoplasmoides gallisepticum, 36H

Please tell me: MIC of CCC1OC(=O)CC(O)C(C)C(OC2OC(C)C(OC3CC(C)(O)C(O)C(C)O3)C(N(C)C)C2OC(C)=O)C(CC=O)CC(C)C(=O)C=CC(C)=CC1COC1OC(C)C(OC(C)=O)C(O)C1OC (centres unmarked) , system Mycoplasma gallisepticum 36H?
> 50 µg/mL

Please tell me: MIC of CCC1OC(=O)CC(O)C(C)C(OC2OC(C)C(O)C(N(C)C)C2OC(C)=O)C(CC=O)CC(C)C(=O)C=CC(C)=CC1COC1OC(C)C(OC(C)=O)C(OC(C)=O)C1OC (centres unmarked) , system Mycoplasma gallisepticum 36H?
50 µg/mL

Please tell me: MIC of CCC1OC(=O)CC(O)C(C)C(OC2OC(C)C(O)C(N(C)C)C2OC(C)=O)C(CC=O)CC(C)C(=O)C=CC(C)=CC1COC1OC(C)C(OC(=O)Cc2ccccc2)C(O)C1OC (centres unmarked) , system Mycoplasma gallisepticum 36H?
6.25 µg/mL

Please tell me: MIC of CCC1OC(=O)CC(O)C(C)C(OC2OC(C)C(O)C(N(C)C)C2O)C(CC=O)CC(C)C(=O)C=CC(C)=CC1COC1OC(C)C(OC(C)=O)C(OC(=O)COc2ccccc2)C1OC (centres unmarked) , system Mycoplasma gallisepticum 36H?
12.5 µg/mL

Please tell me: MIC of CCC1OC(=O)CC(O)C(C)C(OC2OC(C)C(OC3CC(C)(O)C(O)C(C)O3)C(N(C)C)C2OC(C)=O)C(CC=O)CC(C)C(=O)C=CC(C)=CC1COC1OC(C)C(OC(=O)CC(C)C)C(OC(=O)CC(C)C)C1OC (centres unmarked) , system Mycoplasma gallisepticum 36H?
50 µg/mL

Please tell me: MIC of CCC1OC(=O)CC(O)C(C)C(OC2OC(C)C(O)C(N(C)C)C2O)C(CCOc2ccccc2)CC(C)C(=O)C=CC(C)=CC1COC1OC(C)C=CC1OC (centres unmarked) , system Mycoplasma gallisepticum 36H?
25 µg/mL

Please tell me: MIC of CCC1OC(=O)CC(O)C(C)C(OC2OC(C)C(OC3CC(C)(O)C(O)C(C)O3)C(N(C)C)C2OC(C)=O)C(CC=O)CC(C)C(=O)C=CC(C)=CC1COC1OC(C)C(OC(=O)Cc2ccccc2)C(O)C1OC (centres unmarked) , system Mycoplasma gallisepticum 36H?
12.5 µg/mL

Please tell me: MIC of CCC1OC(=O)CC(O)C(C)C(OC2OC(C)C(OC3CC(C)(O)C(O)C(C)O3)C(N(C)C)C2OC(C)=O)C(CC=O)CC(C)C(=O)C=CC(C)=CC1COC1OC(C)C(OC(=O)COc2ccccc2)C(O)C1OC (centres unmarked) , system Mycoplasma gallisepticum 36H?
12.5 µg/mL

Please tell me: MIC of CCC1OC(=O)CC(O)C(C)C(OC2OC(C)C(OC3CC(C)(O)C(O)C(C)O3)C(N(C)C)C2OC(C)=O)C(CC=O)CC(C)C(=O)C=CC(C)=CC1COC1OC(C)C(OC(C)=O)C(OC(=O)COc2ccccc2)C1OC (centres unmarked) , system Mycoplasma gallisepticum 36H?
50 µg/mL

Please tell me: MIC of CCC1OC(=O)CC(O)C(C)C(OC2OC(C)C(OC3CC(C)(O)C(O)C(C)O3)C(N(C)C)C2OC(C)=O)C(CC=O)CC(C)C(=O)C=CC(C)=CC1COC1OC(C)C(OC(=O)Cc2ccccc2)C(OC(=O)Cc2ccccc2)C1OC (centres unmarked) , system Mycoplasma gallisepticum 36H?
50 µg/mL

Please tell me: MIC of CCC1OC(=O)CC(O)C(C)C(OC2OC(C)C(OC3CC(C)(O)C(O)C(C)O3)C(N(C)C)C2O)C(CC=O)CC(C)C(=O)C=CC(C)=CC1COC1OC(C)C(OC(=O)Cc2ccccc2)C(O)C1OC (centres unmarked) , system Mycoplasma gallisepticum 36H?
12.5 µg/mL

Please tell me: MIC of CCC1OC(=O)CC(O)C(C)C(OC2OC(C)C(O)C(N(C)C)C2OC(C)=O)C(CC=O)CC(C)C(=O)C=CC(C)=CC1COC1OC(C)C(OC(C)=O)C(OC(=O)COc2ccccc2)C1OC (centres unmarked) , system Mycoplasma gallisepticum 36H?
12.5 µg/mL

Please tell me: MIC of CCC1OC(=O)CC(O)C(C)C(OC2OC(C)C(OC3CC(C)(O)C(O)C(C)O3)C(N(C)C)C2OC(C)=O)C(CC=O)CC(C)C(=O)C=CC(C)=CC1COC1OC(C)C(OC(=O)CC(C)C)C(O)C1OC (centres unmarked) , system Mycoplasma gallisepticum 36H?
50 µg/mL

Please tell me: MIC of CCC1OC(=O)CC(O)C(C)C(OC2OC(C)C(O)C(N(C)C)C2O)C(CC=O)CC(C)C(=O)C=CC(C)=CC1COC1OC(C)C(OC(=O)COc2ccccc2)C(OC(=O)COc2ccccc2)C1OC (centres unmarked) , system Mycoplasma gallisepticum 36H?
12.5 µg/mL

Please tell me: MIC of CCC1OC(=O)CC(O)C(C)C(OC2OC(C)C(O)C(N(C)C)C2O)C(CC=O)CC(C)C(=O)C=CC(C)=CC1COC1OC(C)C(OC(=O)Cc2ccccc2)C(O)C1OC (centres unmarked) , system Mycoplasma gallisepticum 36H?
25 µg/mL

Please tell me: MIC of CCC1OC(=O)CC(O)C(C)C(OC2OC(C)C(O)C(N(C)C)C2OC(C)=O)C(CC=O)CC(C)C(=O)C=CC(C)=CC1COC1OC(C)C(OC(=O)CC(C)C)C(O)C1OC (centres unmarked) , system Mycoplasma gallisepticum 36H?
25 µg/mL

Please tell me: MIC of CCC1OC(=O)CC(O)C(C)C(OC2OC(C)C(O)C(N(C)C)C2O)C(CCOc2ccccc2)CC(C)C(=O)C=CC(C)=CC1COC1OC(C)C2OC(=O)OC2C1OC (centres unmarked) , system Mycoplasma gallisepticum 36H?
50 µg/mL
